molecular target: Poly(ADP-ribose) glycohydrolase (Homo sapiens)
Sequence (Q86W56 whole entry): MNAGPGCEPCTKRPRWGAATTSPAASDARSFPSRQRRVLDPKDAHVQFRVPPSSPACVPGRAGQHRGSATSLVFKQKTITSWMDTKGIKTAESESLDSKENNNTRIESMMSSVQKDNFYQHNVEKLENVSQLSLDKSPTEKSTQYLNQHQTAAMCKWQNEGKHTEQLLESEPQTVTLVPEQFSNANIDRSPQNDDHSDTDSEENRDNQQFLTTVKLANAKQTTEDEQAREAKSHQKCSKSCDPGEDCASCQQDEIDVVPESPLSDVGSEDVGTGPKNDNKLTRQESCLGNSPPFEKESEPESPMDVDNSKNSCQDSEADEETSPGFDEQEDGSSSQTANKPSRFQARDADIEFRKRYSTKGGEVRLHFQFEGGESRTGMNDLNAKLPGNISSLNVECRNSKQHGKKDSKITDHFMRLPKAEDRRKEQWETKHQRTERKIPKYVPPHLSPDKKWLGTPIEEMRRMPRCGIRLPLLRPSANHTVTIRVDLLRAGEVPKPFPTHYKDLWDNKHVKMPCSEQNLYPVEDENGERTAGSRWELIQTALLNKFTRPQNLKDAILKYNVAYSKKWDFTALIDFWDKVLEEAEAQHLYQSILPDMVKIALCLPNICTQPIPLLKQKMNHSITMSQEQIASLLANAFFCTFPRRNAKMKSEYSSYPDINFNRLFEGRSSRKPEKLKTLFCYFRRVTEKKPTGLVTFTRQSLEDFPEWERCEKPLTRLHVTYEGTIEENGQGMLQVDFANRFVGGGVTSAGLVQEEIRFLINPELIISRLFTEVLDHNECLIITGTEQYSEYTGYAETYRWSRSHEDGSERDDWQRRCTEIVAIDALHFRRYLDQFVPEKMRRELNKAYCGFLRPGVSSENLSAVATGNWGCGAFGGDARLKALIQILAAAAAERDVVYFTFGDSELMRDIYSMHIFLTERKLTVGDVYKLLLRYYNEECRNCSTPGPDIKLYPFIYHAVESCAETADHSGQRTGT
pIC50: −log10 of the molar value.
In this section we review reported pIC50 values for a set of compounds.

>>> reported_value("O=C(N1CCCC1)N1CCN(c2cc(S(=O)(=O)NC3(CF)COC3)cc3c2cnn3-c2nnc(C(F)F)s2)CC1 [US20250346564, Example 36]")
"> 7.30"

Here is another compound to look at.
// field: pIC50; key: CC[C@@H]1C[C@]1(C)NS(=O)(=O)c1ccc2c(c1)c(=O)n(CC)c(=O)n2CC [US20250346564, Example 13A] ; value = < 5.30
